- Test system: Plasmodium berghei
- Assay info: Antimalarial activity as change in MST for drug-sensitive Plasmodium berghei infected mice (Mus musculus) at 80 mg/kg subcutaneous dose over 72 hr
- Format: functional
Record form. Attribute: Delta MST. Fill in for each entry.
Response body: numeric value in days, unit text excluded.

Data request: Provide Delta MST, tested on Plasmodium berghei, for CC(C)N(C)S(=O)(=O)c1ccc2nc(N)nc(N)c2c1 .
Data returned: 4

Data request: Give Delta MST only, for Nc1nc(N)c2cc(S(=O)(=O)N3CCc4ccccc4C3)ccc2n1 , using Plasmodium berghei data.
Data returned: 0.7

Data request: Provide Delta MST, tested on Plasmodium berghei, for CC1(C)N=C(N)N=C(N)N1c1ccc(Cl)cc1.Cl [CHLORCYCLOGUANIL HYDROCHLORIDE] .
Data returned: 21.6

Data request: Please respond with reported Delta MST (system Plasmodium berghei) for Nc1nc(N)c2cc(S(=O)(=O)Nc3ccc4ccccc4c3)ccc2n1 .
Data returned: 0.5
